Exercise: state measured MMP2 production, Experiment 1 (human atrial fibroblasts + TGFB1) for each of the binders provided.
- ASSAY SYSTEM: T1, Human IL-11 (human, UniProt P20809 22-199); also: test concentration or dose not given here
- T1 sequence: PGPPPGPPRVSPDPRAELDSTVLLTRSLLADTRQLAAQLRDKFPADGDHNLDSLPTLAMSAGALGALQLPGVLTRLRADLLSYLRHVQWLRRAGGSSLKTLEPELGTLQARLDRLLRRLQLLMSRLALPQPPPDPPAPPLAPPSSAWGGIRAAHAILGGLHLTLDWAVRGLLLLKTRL
- PROTOCOL SUMMARY: cell-based or functional assay
Your answer is read as ng/mL, so omit the unit and give the number.

// returns reported MMP2 production, Experiment 1 (human atrial fibroblasts + TGFB1) for input YU112-C03 (antibody) QVQLVESGGGVVQPGRSLRLSCAASGFTFSSYGMHWVRQAPGKGLEWVAVISYDGSNKYYADSVKGRFTISRDNSKNTLYLQMNSLRAEDTAVYYCAKGGKSYYGFDYWGQGTLVTVSSGSASAPKLEEGEFSEARVDSVMTQSPSSLSASVGDRVTITCRASQAINSYLNWYQQKPGKAPKLLIYAASSLQSGVPSRFSGSGSGTDFTLTISGLQPEDFATYYCQQSYSTPSWTFGQGTKVEIK
57.6

// returns reported MMP2 production, Experiment 1 (human atrial fibroblasts + TGFB1) for input YU100-E01 (antibody) QVQLQQSGGGVVQPGRSLRLSCAASGFTFSSYGMHWVRQAPGKGLEWVAVISYDGSNKYYADSVKGRFTISRDNSKNTLYLQMNSLRAEDTAVYYCAKIGATDPLDYWGQGTLVTVSSGSASAPKLEEGEFSEARVQSALTQPASVSGSPGQSITISCTGTSNDIGAYNYVSWYQQHPGKAPKLLIYDVNNRPSGVSDRFSGSKSGNTASLTISGLQAEDEADYYCCSYAGSYSWVFGGGTKLTVLGQPKANPTVTLFPPSS
59.3

// returns reported MMP2 production, Experiment 1 (human atrial fibroblasts + TGFB1) for input YU100-F01 (antibody) QVQLVQSGGGVVQPGRSLRLSCAASGFTFSSYGMHWVRQAPGKGLEWVAVISYDGSNKYYADSVKGRFTISRDNSKNTLYLQMNSLRAEDTAVYYCAKIGATDPLDYWGQGTLVTVSSGSASAPKLEEGEFSEARVQSALTQPASVSGSPGQSITISCTGTGSDVGAYDYVSWYQQHPGKAPKLMIYDVNNRPSGVSNRFSGSKSGNTASLTISGLQAEDEAEYYCSSFATSISWVFGGGTRLTVL
52.8

// returns reported MMP2 production, Experiment 1 (human atrial fibroblasts + TGFB1) for input YU100-H06 (antibody) QVQLVESGGGVVQPGRSLRLSCAASGFTFSSYGMHWVRQAPGKGLEWVAVISYDGSNKYYADSVKGRFTISRDNSKNTLYLQMNSLRAEDTAVYYCAKIGATDPLDYWGQGTLVTVSSGSASAPKLEEGEFSEARIQSALTQPRSVSGSPGQSVTISCTGTSSDVGGYNYVSWYQQHPGKAPKLMIYDVTKRPSGVPDRFSGSKSGNTASLTISGLQAEDEADYYCSSYAGSYTWVFGGGTKLTVL
52.3

// returns reported MMP2 production, Experiment 1 (human atrial fibroblasts + TGFB1) for input YU100-G01 (antibody) QVQLVQSGGGVVQPGRSLRLSCAASGFTFSSYGMHWVRQAPGKGLEWVAVISYDGSNKYYADSVKGRFTISRDNSKNTLYLQMNSLRAEDTAVYYCAKIGATDPLDYWGQGTLVTVSSGSASAPKLEEGEFSEARVQSALTQPRSVSASPGQSVTISCTGTSSDVGAYNYVSWYQQHPGKAPKLMLYDVNKRPSGVPDRFSGSKSGNTASLTISRLQAEDEADYYCCSYAGSYTWVFGGGTKLTVL
56.6
